Give measured pIC50 for each item. Keep answers brief.
- system-under-test: HCV polymerase 1B (Δ21 NS5B, BK) (Hepatitis C virus genotype 1b, UniProt P26663)
- Construct: 20 to 50 nM Δ21 NS5B
- Sequence (P26663 2420-2989, stated change not applied): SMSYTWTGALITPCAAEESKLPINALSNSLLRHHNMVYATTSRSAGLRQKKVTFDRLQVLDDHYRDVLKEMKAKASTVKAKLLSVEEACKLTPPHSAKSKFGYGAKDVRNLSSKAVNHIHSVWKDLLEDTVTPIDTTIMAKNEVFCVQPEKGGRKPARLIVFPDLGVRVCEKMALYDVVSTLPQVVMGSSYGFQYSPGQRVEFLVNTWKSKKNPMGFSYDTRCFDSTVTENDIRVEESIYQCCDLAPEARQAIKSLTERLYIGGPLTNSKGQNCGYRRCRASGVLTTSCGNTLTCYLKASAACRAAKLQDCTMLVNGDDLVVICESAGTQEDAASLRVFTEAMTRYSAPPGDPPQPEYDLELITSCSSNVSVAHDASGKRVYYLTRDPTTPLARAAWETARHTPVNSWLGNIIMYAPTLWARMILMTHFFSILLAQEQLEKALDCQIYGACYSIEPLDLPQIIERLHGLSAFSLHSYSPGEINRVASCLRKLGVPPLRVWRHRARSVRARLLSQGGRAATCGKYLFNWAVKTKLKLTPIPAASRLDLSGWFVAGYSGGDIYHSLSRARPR
- assay-text: biochemical
pIC50: −log10 of the molar value.

[Q] What value of measured pIC50 is listed for COc1c(-c2nc3cc(N(S(C)(=O)=O)S(C)(=O)=O)ccc3[nH]2)cc(N2CCC(=O)NC2=O)cc1C(C)(C)C ?
[A] < 6.00

[Q] Also, CCOC(=O)CC(=O)c1ccc(NC(=O)c2cc(N3CCC(=O)NC3=O)cc(C(C)(C)C)c2OC)cc1 please.
[A] < 6.00

[Q] Proceed to COc1c(-c2ccoc2)cc(-n2ccc(=O)[nH]c2=O)cc1-c1ccc2c(c1)CC=C2CNS(C)(=O)=O
[A] 7.00 to 8.00

[Q] What about this compound? COc1c(C(=O)Nc2ccc(NS(C)(=O)=O)cc2)cc(N2CCC(=O)NC2=O)cc1C(C)C
[A] 6.00 to 7.00

[Q] Likewise for COc1c(C(=O)Nc2ccc(N(C(C)=O)S(C)(=O)=O)cc2)cc(N2CCC(=O)NC2=O)cc1C(C)(C)C ?
[A] 6.00 to 7.00

[Q] Same read-out for CC(C)(C)OC(=O)N(Cc1csc(NC(=O)c2cc(N3CCC(=O)NC3=O)cc(C(C)(C)C)c2O)c1)S(C)(=O)=O ?
[A] 6.00 to 7.00

[Q] Next up: COc1ccc(-c2cc(N3CCC(=O)NC3=O)cc(C(C)(C)C)c2OC)cc1/C=N/NS(C)(=O)=O
[A] 6.00 to 7.00

Where these numbers come from: patent US8415351B2
